From: ChEMBL document CHEMBL1157659

molecular target: Dual specificity calcium/calmodulin-dependent 3',5'-cyclic nucleotide phosphodiesterase 1A (Homo sapiens); test: Inhibition of PDE1A
Sequence (P54750 whole entry): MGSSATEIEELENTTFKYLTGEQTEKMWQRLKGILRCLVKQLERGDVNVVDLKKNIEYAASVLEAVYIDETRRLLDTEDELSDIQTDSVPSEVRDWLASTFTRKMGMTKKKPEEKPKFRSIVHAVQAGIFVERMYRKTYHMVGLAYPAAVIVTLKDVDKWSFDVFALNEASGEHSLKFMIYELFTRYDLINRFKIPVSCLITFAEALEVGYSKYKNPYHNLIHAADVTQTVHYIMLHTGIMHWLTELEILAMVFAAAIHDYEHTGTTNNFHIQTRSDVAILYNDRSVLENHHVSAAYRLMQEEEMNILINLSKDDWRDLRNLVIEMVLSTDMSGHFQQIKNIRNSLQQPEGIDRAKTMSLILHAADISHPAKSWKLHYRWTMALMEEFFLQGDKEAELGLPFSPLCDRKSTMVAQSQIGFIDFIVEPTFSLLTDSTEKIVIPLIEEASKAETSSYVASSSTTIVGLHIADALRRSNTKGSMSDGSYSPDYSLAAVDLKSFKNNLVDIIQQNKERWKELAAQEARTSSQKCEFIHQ
pIC50: −log10 of the molar value.
readout.kind: pIC50

# pIC50 of CCCOCCn1c(=O)c(N2CCN(CCO)CC2)nc2cnc(-c3ccc(OC)nc3)cc21 = < 5.70

====

experiment: Oral bioavailability in Sprague-Dawley rat at 1 mg/kg; type: ADME, organism-based; settings: in vivo
readout.kind: bioavailability (%)
Report the value in % with no unit label.

Briefly, bioavailability measured for CCCOCCn1c(=O)c(N2CCN(CCO)CC2)nc2cnc(-c3ccc(OC)nc3)cc21 : 69

====

biological target: Voltage-gated inwardly rectifying potassium channel KCNH2 (Homo sapiens, UniProt Q12809); experiment: Inhibition of human ERG by patch-clamp method
Sequence (Q12809 whole entry): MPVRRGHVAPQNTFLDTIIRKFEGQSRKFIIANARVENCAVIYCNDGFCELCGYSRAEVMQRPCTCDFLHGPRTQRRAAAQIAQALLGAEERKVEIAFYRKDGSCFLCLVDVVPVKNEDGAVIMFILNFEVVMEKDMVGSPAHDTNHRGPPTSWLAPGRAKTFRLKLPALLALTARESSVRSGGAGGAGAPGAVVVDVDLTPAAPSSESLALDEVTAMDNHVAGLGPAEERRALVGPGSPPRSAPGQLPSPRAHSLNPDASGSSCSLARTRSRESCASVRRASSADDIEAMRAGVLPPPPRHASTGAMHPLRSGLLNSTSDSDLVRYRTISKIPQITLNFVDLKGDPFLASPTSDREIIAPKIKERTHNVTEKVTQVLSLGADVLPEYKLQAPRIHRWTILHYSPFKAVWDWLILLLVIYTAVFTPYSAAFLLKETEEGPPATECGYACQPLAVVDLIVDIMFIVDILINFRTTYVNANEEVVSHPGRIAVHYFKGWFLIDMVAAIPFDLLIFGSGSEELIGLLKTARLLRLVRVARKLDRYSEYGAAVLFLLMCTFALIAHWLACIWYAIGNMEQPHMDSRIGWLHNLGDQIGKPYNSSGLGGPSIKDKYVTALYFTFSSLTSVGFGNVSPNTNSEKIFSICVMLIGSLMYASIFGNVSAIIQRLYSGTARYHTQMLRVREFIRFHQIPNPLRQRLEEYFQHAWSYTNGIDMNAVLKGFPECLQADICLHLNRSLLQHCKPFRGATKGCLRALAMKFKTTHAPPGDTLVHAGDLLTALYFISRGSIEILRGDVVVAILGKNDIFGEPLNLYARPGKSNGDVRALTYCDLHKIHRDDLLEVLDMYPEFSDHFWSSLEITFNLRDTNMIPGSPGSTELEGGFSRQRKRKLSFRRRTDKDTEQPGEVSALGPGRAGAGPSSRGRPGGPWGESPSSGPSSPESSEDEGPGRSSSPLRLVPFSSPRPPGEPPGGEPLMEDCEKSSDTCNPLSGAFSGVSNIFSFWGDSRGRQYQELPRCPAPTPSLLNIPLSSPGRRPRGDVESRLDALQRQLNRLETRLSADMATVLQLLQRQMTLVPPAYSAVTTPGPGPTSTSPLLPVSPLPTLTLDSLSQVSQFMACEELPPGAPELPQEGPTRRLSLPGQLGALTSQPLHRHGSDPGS
readout.kind: log10(IC50) (log10 of the value in nM)
// do not treat as linear: log10 of IC50, unit nM

CCCOCCn1c(=O)c(N2CCN([C@@H](C)[C@@H](C)O)CC2)nc2cnc(-c3ccc(OC)nc3)cc21 (racemic) ... 1.73

According to the records, this compound CCCOCCn1c(=O)c(N2CCN(C[C@@H](C)O)CC2)nc2cnc(-c3ccc(OC)nc3)cc21 displays log10(IC50) of 2.36

log10(IC50) for CCCOCCn1c(=O)c(NCCNCCO)nc2cnc(-c3ccc(OC)nc3)cc21 is 3.65

The compound CCCOCCn1c(=O)c(N2CCN(CCO)CC2)nc2cnc(-c3ccc(OC)nc3)cc21 [PF-03049423] showed log10(IC50) equal to 3.25

Entry CCCOCCn1c(=O)c(N2CCNCC2)nc2cnc(-c3ccc(OC)nc3)cc21 — recorded log10(IC50) = 2.83

====

test: Aqueous solubility at pH 7.4; type: physicochemical
readout.kind: solubility

CCCOCCn1c(=O)c(NCCNCCO)nc2cnc(-c3ccc(OC)nc3)cc21 ... > 100 µM

# context switch: different compound, same solubility
Reported solubility ( CCCOCCn1c(=O)c(NCCN)nc2cnc(-c3ccc(OC)nc3)cc21 ) = > 100 µM
